- assay-system: T1, Recombinant human CD4 (R&D Systems, Cat. 10327-CD) (human, UniProt P01730 26-390, limits assumed)
- T1 construct: Bought protein; also called huCD4
- protocol-description: BLI (Octet Red384), purified antibody on anti-mouse Fc sensors, human CD4 100/50/25 nM, global 1:1 fit;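 note: antibodies loaded at 10 µg/mL, curves fitted across association and dissociation phases, with an unrelated mouse-derived antibody serving as internal reference control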
value-type: Response
One number for each entry.

binder	Response
75110_12H19A (antibody, V domains shown, Tested as antibody purified from AlivaMab Mouse Kappa hybridoma (human V regions, kappa light chain, mouse Fc captured by anti-mouse Fc sensors)) VH: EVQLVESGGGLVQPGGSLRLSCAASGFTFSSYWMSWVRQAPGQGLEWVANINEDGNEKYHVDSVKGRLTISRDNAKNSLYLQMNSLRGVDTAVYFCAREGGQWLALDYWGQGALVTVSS VL: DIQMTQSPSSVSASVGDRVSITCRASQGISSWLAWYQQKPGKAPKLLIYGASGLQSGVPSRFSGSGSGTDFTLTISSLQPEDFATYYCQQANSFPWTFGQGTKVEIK	0.25

Record Response per entry; entries follow.
1. 75110_08F20A (antibody, V domains shown, Tested as antibody purified from AlivaMab Mouse Kappa hybridoma (human V regions, kappa light chain, mouse Fc captured by anti-mouse Fc sensors)) VH: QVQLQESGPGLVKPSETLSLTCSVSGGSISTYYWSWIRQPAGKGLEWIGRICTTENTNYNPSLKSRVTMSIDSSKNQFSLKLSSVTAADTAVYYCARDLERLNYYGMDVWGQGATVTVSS VL: DIQMTQSPSSLSASVGDRVTITCQASQDISKYLNWYQQKPGIAPKLLIYDASNLETGVPSRFSGSGSGTDFTFTISSLQPEDFATYYCQQYDSLPITFGQGTRLEIK
2. 75110_13C13A (antibody, V domains shown, Tested as antibody purified from AlivaMab Mouse Kappa hybridoma (human V regions, kappa light chain, mouse Fc captured by anti-mouse Fc sensors)) VH: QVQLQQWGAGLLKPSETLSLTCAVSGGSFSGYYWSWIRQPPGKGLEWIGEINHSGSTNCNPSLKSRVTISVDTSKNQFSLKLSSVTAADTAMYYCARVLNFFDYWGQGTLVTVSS VL: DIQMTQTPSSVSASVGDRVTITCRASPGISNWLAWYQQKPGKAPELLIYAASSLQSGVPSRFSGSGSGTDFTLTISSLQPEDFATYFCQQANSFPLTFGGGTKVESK
3. 75110_07B16A (antibody, V domains shown, Tested as antibody purified from AlivaMab Mouse Kappa hybridoma (human V regions, kappa light chain, mouse Fc captured by anti-mouse Fc sensors)) VH: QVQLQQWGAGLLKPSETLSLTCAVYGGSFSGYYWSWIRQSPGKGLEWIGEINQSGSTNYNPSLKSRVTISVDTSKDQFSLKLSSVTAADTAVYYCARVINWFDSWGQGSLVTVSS VL: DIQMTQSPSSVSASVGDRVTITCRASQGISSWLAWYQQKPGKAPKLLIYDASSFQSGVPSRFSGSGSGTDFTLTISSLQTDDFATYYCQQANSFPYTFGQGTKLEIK
4. 75110_10O16A (antibody, V domains shown, Tested as antibody purified from AlivaMab Mouse Kappa hybridoma (human V regions, kappa light chain, mouse Fc captured by anti-mouse Fc sensors); also called 75110_10016A) VH: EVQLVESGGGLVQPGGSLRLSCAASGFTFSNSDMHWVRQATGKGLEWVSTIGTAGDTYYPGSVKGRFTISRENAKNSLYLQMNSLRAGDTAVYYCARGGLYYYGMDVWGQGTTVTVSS VL: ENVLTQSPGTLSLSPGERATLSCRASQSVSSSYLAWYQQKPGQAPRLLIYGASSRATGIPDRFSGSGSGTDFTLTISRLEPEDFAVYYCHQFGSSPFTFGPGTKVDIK
5. 75110_13P22A (antibody, V domains shown, Tested as antibody purified from AlivaMab Mouse Kappa hybridoma (human V regions, kappa light chain, mouse Fc captured by anti-mouse Fc sensors)) VH: QVQLQQWGAGLLKPSETLSLTCAAYGGSFSGYYWSWIRQSPGKGLEWIGEINQSGNTNYNPSLKSRVTISADTSKNQFSLKLSSVTAADTAVYYCARVLNWFDYWGQGILVTVSS VL: DIQMTQSPSSVSASVGDRVTITCRASQGISDWLAWYQQKSGKAPDLLIFAASSLQSGVPSRFSGSGSGTDFTLTISSLQPEDFATYYCQQANSFPYTFGQGTKLEIK

Solution:
1: 0.22; 2: 0.21; 3: 0.24; 4: 0.08; 5: 0.16

Record Response per entry; entries follow.
1. 75110_08M20A (antibody, V domains shown, Tested as antibody purified from AlivaMab Mouse Kappa hybridoma (human V regions, kappa light chain, mouse Fc captured by anti-mouse Fc sensors)) VH: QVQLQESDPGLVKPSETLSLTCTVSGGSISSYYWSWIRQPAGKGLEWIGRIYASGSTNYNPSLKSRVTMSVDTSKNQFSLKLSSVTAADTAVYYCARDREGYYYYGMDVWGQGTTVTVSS VL: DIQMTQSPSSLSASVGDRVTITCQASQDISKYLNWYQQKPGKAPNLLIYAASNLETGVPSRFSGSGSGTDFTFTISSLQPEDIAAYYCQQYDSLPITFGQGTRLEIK
2. 75110_06G04A (antibody, V domains shown, Tested as antibody purified from AlivaMab Mouse Kappa hybridoma (human V regions, kappa light chain, mouse Fc captured by anti-mouse Fc sensors)) VH: QVQLLESGPGLVKPSETLSLTCTVSGGSISSYYWSWIRQPAGKGLEWIGRIYISGSTNYNPSLKSRVTMSIDTSENQFSLNLSSVTAADTAVYYCARELERPYYYGMDVWGQGTTVTVSS VL: DIQMTQSPSSLSASVGDRVTITCQASQDISNYLNWYQQKPGKAPKLLIYNASTLETGVPSRFSGSGSGTDFTFTISSLQPEDIATYYCQQYDNLPLTFGGGTKVEFK
3. 75110_08A13A (antibody, V domains shown, Tested as antibody purified from AlivaMab Mouse Kappa hybridoma (human V regions, kappa light chain, mouse Fc captured by anti-mouse Fc sensors)) VH: EVQLVESGGGLVQPGGSLRLSCAASGFIFSSYWMSWVRQAPGKGLEWVANIKQDGSEKYYMDSVKGRFTISRDNAKNSLYLQMNSLRAEDTAVYYCARDNSYYYYGMDVWGQGTTVTVSS VL: AIQMTQSPSSLSASVGDRVTITCRASQGIRDDLGWYQQKPGKAPKLLIFAASSLQSGVPSSFSGSGSGTDFTLTISSLQPEDFATYYCLHHYNYPYTFGQGTKLEIK
4. 75110_10N21A (antibody, V domains shown, Tested as antibody purified from AlivaMab Mouse Kappa hybridoma (human V regions, kappa light chain, mouse Fc captured by anti-mouse Fc sensors)) VH: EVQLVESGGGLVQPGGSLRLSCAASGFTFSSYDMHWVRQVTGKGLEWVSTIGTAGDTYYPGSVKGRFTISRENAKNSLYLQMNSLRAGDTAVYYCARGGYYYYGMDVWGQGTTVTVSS VL: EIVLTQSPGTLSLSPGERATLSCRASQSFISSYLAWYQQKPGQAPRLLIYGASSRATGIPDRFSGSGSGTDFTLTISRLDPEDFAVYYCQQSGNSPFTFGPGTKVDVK

Solution:
[0.16, 0.07, 0.12, 0.09]
